Test system: A549 NSCLC
EXPERIMENTAL PROTOCOL: NCI tumour cell line growth inhibition, 48 h
Listed below: TGI values for each entry.

C=C1CCC2C3(C)COC(c4ccc(SC)cc4)OC3CCC2(C)C1C/C=C1/C(=O)OCC1O (stereo not given) : 18.4 µM
CC(C)(C)[Si](C)(C)O/N=C\c1ccc(O[Si](C)(C)C(C)(C)C)cc1 : > 100 µM
N#CN1CCC[C@H]1C(=O)N1CCc2c(-c3[nH]nc4ncccc34)cccc21 : > 25.1 µM
COC(=O)Nc1nc2cc3c(cc2s1)OCCO3 : > 50 µM
Cc1ccc(S(=O)(=O)Oc2cc(S(=O)(=O)O)cc3cc(S(=O)(=O)O)cc(N)c23)cc1 : > 100 µM
C#COc1cccc(Nc2ncnc3ncc(NC(=O)CCl)cc23)c1 : > 62.5 µM

Returns the measured TGI for the input compound. Input: O=C(O)c1cc(=O)[nH]c(=S)[nH]1
> 100 µM

Returns the measured TGI for the input compound. Input: CC[C@@H](C(=O)[C@@H](C)[C@@H](O)[C@H](C)CCc1ccc(C)c(O)c1C(=O)O)[C@H]1O[C@](CC)([C@H]2CC[C@](O)(CC)[C@H](C)O2)C[C@@H]1C
11.9 µM
